Test system: Ba/F3 parental
Assay: Cytotoxicity assay, Ba/F3 parental (CellTiter-Glo)
Format: cell-based
Conditions: Mus musculus, BaF3; 72 hrs, CTG
Procedure: [Worded in the source for another cell line; this cell line is reported under the same test.] Inhibitory effect of example compounds on the activity of Ba/F3 KIF5B-RET and Ba/F3 FLT3-ITD cells was detected. […] • 1. Cells in the logarithmic growth phase were harvested and counted with a […]. Cell viability was detected by a trypan blue exclusion method, ensuring that cell viability was 90% or more; • 2. […] Plate Reading at the End: • 1. […] The cell plate was placed at RT for 20 minutes to stabilize the luminescence signal; • 5. Luminescence value was read. […]
IC50 less than 2000 nM is Yes; IC50 greater than or equal to 2000 nM is No.

INSERT INTO results (compound, class) VALUES
  ('Cn1cc(-c2cnn3c(-c4ccc(CC(=O)Nc5cc(C(C)(C)C(F)(F)F)on5)cc4)cnc3c2)cn1 [Compound T-2]', 'No'),
  ('Cn1cc(-c2cnn3c(-c4ccc(NC(=O)Nc5cc(C(F)(F)F)ccc5F)cc4)cnc3c2)cn1 [Compound T-1]', 'Yes'),
  ('Cn1cc(-c2cnc3c(-c4ccc(CC(=O)Nc5cc(C(C)(C)C(F)(F)F)on5)cc4)cnn3c2)cn1 [Compound T-10]', 'Yes'),
  ('Cn1cc(Nc2ccnn3c(-c4ccc(CC(=O)Nc5cc(C(C)(C)C(F)(F)F)on5)cc4)cnc23)cn1 [Compound T-6]', 'No'),
  ('Cn1cc(-c2ccc3c(-c4ccc(CC(=O)Nc5cc(C(C)(C)C(F)(F)F)on5)cc4)cnn3c2)cn1 [Compound T-11]', 'Yes'),
  ('Cn1cc(-c2cnn3c(-c4ccc(CC(=O)Nc5cc(C(C)(C)C(F)(F)F)on5)c(F)c4)cnc3c2)cn1 [Compound T-7]', 'Yes'),
  ('Cn1cc(-c2cnn3c(-c4ccc(CC(=O)Nc5cc(C(C)(C)C(F)(F)F)on5)cn4)cnc3c2)cn1 [Compound T-9]', 'No'),
  ('Cn1cc(Nc2nccn3c(-c4ccc(CC(=O)Nc5cc(C(C)(C)C(F)(F)F)on5)cc4)cnc23)cn1 [Compound T-5]', 'No'),
  ('Cn1cc(-c2cc3ncc(-c4ccc(CC(=O)Nc5cc(C(C)(C)C(F)(F)F)on5)cn4)n3cn2)cn1 [Compound T-3]', 'No');

====

Target: Ret wt (Homo sapiens (Human))
Sequence (P07949 29-1114): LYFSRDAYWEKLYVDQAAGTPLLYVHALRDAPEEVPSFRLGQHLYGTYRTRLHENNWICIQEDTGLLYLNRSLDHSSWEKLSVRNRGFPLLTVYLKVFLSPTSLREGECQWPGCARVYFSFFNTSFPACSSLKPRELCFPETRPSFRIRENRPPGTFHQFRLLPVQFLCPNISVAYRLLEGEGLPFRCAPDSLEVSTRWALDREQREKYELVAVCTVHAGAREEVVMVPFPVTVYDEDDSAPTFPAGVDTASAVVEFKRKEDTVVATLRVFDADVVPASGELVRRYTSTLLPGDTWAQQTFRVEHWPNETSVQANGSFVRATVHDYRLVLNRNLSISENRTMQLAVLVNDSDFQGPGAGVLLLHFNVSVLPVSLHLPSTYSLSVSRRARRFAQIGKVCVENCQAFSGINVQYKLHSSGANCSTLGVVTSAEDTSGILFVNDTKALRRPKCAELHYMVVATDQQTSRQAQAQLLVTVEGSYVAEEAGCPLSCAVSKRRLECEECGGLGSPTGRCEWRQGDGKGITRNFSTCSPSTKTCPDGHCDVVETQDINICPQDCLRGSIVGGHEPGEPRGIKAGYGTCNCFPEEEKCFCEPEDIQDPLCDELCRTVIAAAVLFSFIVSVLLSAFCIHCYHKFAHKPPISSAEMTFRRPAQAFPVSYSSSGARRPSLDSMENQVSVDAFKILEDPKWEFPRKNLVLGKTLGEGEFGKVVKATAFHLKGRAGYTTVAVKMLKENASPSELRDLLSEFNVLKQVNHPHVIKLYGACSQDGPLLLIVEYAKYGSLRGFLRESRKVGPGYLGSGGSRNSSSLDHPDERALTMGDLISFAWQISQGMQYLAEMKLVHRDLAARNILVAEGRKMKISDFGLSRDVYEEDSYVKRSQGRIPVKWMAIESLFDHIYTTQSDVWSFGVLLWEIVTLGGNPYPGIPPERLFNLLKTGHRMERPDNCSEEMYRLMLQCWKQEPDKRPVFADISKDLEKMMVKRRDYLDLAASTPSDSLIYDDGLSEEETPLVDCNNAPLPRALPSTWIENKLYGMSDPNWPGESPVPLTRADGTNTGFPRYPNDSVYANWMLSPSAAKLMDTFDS
Experiment: Inhibition of kinase, Ret wt (HTRF KinEASE-TK)
Format: biochemical
Conditions: read-out: IC50 against Ret wt
pIC50: −log10 of the molar value.
Quantity: pIC50

INSERT INTO measurements (compound, quantity, value_reported) VALUES
  ('Cn1cc(-c2cc3ncc(-c4ccc(CC(=O)Nc5cc(C(C)(C)C(F)(F)F)on5)c(F)c4)n3cn2)cn1 [Compound T-8]', 'pIC50', '> 9.70');

====

In this section we review reported pIC50 values for a set of molecules.
Target: RET V804M (Homo sapiens (Human), UniProt P07949, V804M)
Sequence (P07949 29-1114 V804M): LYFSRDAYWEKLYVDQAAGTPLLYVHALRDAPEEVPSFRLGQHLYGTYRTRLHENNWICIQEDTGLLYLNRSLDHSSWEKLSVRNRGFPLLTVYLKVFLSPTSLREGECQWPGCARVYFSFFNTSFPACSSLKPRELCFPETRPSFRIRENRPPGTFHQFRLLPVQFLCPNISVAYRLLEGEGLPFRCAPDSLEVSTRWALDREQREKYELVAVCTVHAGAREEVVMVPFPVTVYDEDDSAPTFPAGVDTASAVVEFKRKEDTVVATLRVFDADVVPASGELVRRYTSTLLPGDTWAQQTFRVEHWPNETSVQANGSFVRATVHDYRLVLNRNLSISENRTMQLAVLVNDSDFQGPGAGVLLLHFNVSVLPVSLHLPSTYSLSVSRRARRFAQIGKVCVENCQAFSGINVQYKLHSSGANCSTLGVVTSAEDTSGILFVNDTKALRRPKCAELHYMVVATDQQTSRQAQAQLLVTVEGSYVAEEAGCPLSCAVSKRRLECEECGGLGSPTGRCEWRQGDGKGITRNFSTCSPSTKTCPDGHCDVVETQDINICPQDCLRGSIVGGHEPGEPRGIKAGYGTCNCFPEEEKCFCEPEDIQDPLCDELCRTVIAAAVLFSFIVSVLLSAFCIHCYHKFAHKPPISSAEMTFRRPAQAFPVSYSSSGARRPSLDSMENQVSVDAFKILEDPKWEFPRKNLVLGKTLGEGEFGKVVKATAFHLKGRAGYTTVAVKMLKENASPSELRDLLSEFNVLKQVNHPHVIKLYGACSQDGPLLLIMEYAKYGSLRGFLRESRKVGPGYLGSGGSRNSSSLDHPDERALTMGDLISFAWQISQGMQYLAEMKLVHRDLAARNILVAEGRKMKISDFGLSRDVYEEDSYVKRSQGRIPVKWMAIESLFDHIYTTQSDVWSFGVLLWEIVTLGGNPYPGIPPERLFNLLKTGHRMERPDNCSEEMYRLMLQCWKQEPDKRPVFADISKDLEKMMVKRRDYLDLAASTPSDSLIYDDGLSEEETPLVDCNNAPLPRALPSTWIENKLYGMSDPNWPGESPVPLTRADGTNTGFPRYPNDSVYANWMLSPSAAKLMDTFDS
Assay: Inhibition of kinase, RET V804M (HTRF KinEASE-TK)
Details: reaction 20 minutes at room temperature
Procedure: Ret wt (Carna, Cat. No. 08-159-10 ug), RET (V804M), Active (Signalchem, Cat. No. R02-12GG), HTRF KinEASE-TK kit (Cisbio, Cat. No. 62TK0PEC), CEP-32496 (MCE, Cat. No. HY-15200), ATP (Sigma, Cat. No. A7699), DMSO (Sigma, Cat. No. D8418-1L), DTT (Sigma, Cat. No. D0632), MgCl2 (Sigma, Cat. No. M1028), 384-well plate (Labcyte, Cat. No. P-05525-BC). […]
pIC50: −log10 of the molar value.
Quantity: pIC50

INSERT INTO assay_data (entry_smiles, value_reported) VALUES
  ('Cn1cc(-c2cnn3c(-c4ccc(CC(=O)Nc5cc(C(C)(C)C(F)(F)F)on5)cc4)cnc3c2)cn1', 9.40),
  ('Cn1cc(Nc2nccn3c(-c4ccc(CC(=O)Nc5cc(C(C)(C)C(F)(F)F)on5)cc4)cnc23)cn1', 9.10),
  ('Cn1cc(-c2ccc3c(-c4ccc(CC(=O)Nc5cc(C(C)(C)C(F)(F)F)on5)cc4)cnn3c2)cn1', 9.06),
  ('Cn1cc(-c2cnn3c(-c4ccc(CC(=O)Nc5cc(C(C)(C)C(F)(F)F)on5)c(F)c4)cnc3c2)cn1', 9.70),
  ('Cn1cc(-c2cnn3c(-c4ccc(CC(=O)Nc5cc(C(C)(C)C(F)(F)F)on5)cn4)cnc3c2)cn1', 9.32),
  ('Cn1cc(-c2cc3ncc(-c4ccc(CC(=O)Nc5cc(C(C)(C)C(F)(F)F)on5)cc4)n3cn2)cn1', 9.55),
  ('Cn1cc(-c2cc3ncc(-c4ccc(CC(=O)Nc5cc(C(C)(C)C(F)(F)F)on5)cn4)n3cn2)cn1', 9.68),
  ('Cn1cc(-c2cn3ncc(-c4ccc(CC(=O)Nc5cc(C(C)(C)C(F)(F)F)on5)cc4)c3cn2)cn1', 8.95),
  ('Cn1cc(-c2cnc3c(-c4ccc(CC(=O)Nc5cc(C(C)(C)C(F)(F)F)on5)cc4)cnn3c2)cn1', 9.64),
  ('Cn1cc(-c2cc3ncc(-c4ccc(CC(=O)Nc5cc(C(C)(C)C(F)(F)F)on5)c(F)c4)n3cn2)cn1', 9.46),
  ('Cn1cc(Nc2ccnn3c(-c4ccc(CC(=O)Nc5cc(C(C)(C)C(F)(F)F)on5)cc4)cnc23)cn1', 8.98),
  ('Cn1cc(-c2cnn3c(-c4ccc(NC(=O)Nc5cc(C(F)(F)F)ccc5F)cc4)cnc3c2)cn1', 7.12);
